Molecular target: Relaxin receptor 1 (Homo sapiens) (UniProt Q9HBX9)
Sequence (Q9HBX9 whole entry, looked up): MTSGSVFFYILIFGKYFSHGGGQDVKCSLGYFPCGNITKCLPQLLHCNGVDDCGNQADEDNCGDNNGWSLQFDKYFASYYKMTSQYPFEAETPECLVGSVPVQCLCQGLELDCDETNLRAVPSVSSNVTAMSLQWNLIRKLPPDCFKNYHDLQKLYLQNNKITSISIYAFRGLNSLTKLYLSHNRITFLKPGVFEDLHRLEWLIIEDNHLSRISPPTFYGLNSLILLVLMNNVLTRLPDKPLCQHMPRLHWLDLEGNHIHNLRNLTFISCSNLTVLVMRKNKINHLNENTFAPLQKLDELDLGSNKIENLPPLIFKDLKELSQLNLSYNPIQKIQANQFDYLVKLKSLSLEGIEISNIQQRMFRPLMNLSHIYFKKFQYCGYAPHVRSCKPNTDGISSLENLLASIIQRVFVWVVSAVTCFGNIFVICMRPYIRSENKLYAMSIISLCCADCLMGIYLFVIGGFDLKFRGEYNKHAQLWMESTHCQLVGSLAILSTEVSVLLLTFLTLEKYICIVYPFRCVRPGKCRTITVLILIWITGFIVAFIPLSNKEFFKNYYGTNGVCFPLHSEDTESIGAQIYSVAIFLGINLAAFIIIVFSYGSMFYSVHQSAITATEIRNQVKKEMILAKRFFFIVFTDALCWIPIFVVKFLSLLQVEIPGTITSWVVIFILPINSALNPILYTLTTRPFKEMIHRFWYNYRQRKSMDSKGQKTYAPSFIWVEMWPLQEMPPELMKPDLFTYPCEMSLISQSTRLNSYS
Test: qHTS Assay for Agonists of the Relaxin Receptor RXFP1: RXFP1 Hit Validation; further: nearly all actives have a fitted effect of over 65% in size
Conditions: HEK293T-RXFP1 cAMP TR-FRET, 30 min; series mostly up to 115 µM
Records with an inconclusive call do not appear. Calls of active or inactive are those of the source. The call rests on the fitted dose curve; in most records, active means well fitted activation curve with a large enough effect; inconclusive means small, poorly fitted or top-dose-only effect; inactive means no such curve, though single readings can be large or run the other way.
Thanks in advance; please answer with one of these: 1 for active, 0 for inactive

# count of solved cases: 5
[[record]]
compound = "Cc1ccccc1NC(=O)CNc1ccccc1C(=O)NCc1ccco1"
answer_label = 0

[[record]]
compound = "CC1CCCCN1C(=O)c1ccccc1NC(=O)c1ccco1 (centres undefined)"
answer_label = 0

[[record]]
compound = "Cc1cc(NC(=O)c2ccccc2F)nc2c1c(=O)oc1ccccc12"
answer_label = 1

[[record]]
compound = "O=C(Nc1ccccc1C(=O)N1CCCCC1)c1ccco1"
answer_label = 0

[[record]]
compound = "CCn1c(=O)c2sccc2n2c(CCCC(=O)NCc3cccnc3)nnc12"
answer_label = 0


Shifting focus to the compound that follows.
Lab log entry: CC(C)c1ccccc1NC(=O)c1ccccc1NC(=O)C1CCCCC1 — outcome as called in the assay?
0

---

Target: Relaxin receptor 1 (Homo sapiens)
Assay: qHTS Assay for Agonists of the Relaxin Receptor RXFP1: RXFP1 Hit Validation; further: nearly all actives have a fitted effect of over 65% in size;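 on activation: cAMP rise lowers the TR-FRET signal in lysed cells with PDE4 inhibitor present; 0% = buffer-only basal and 100% = 29 nM porcine relaxin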
Details: HEK293T-RXFP1 cAMP TR-FRET, 30 min; series mostly up to 115 µM
Method: NIH Chemical Genomics Center [NCGC] NIH Molecular Libraries Probe Production Centers Network [MLPCN] […] RXFP1 activation was assayed by changes in cAMP levels as detected with a time-resolved fluorescence energy transfer (TR-FRET) cAMP detection kit. NCGC Assay Protocol Summary: This is a cell-based assay for cAMP second messenger response to screen for agonists of the RXFP1 receptor. […] The cells were lysed and the cAMP levels were measured with a TR-FRET cAMP kit. […]
Records with an inconclusive call do not appear. Calls of active or inactive are those of the source. The call rests on the fitted dose curve; in most records, active means well fitted activation curve with a large enough effect; inconclusive means small, poorly fitted or top-dose-only effect; inactive means no such curve, though single readings can be large or run the other way.
Thanks in advance; please answer with one of these: active, inactive

# count of solved cases: 2
[[record]]
compound = "Nc1c(S(=O)(=O)O)cc(NC(=O)c2ccccc2)c2c1C(=O)c1ccccc1C2=O"
answer_label = "inactive"

[[record]]
compound = "COc1ccccc1CNC(=O)CCCc1nnc2n(C)c(=O)c3sccc3n12"
answer_label = "inactive"


Lab log entry: Cc1ccccc1OCC(=O)Nc1sc(C(=O)Nc2cccc(C)c2C)c(C)c1C#N — outcome as called in the assay?
active

Cc1ccc(C(=O)Nc2ccccc2C(=O)NCc2ccco2)cc1 ?
inactive

COC(=O)[C@@H]1C[C@@]2(O)[C@H](O)[C@H](O)[C@H](O)C[C@H]2N1Cc1cc(F)ccc1F ?
inactive

Cc1cc(C)c(C(=O)CSc2n[nH]c(=O)n2C2CC2)cc1C ?
inactive

CCOC(=O)/C(C#N)=C/c1c(N2CCN(CC)CC2)nc2c(C)cccn2c1=O ?
inactive

---

Molecular target: Relaxin receptor 1 (Homo sapiens) (UniProt Q9HBX9)
Test: qHTS Assay for Agonists of the Relaxin Receptor RXFP1: RXFP1 Hit Validation; further: nearly all actives have a fitted effect of over 65% in size; further: potency means the concentration at half of the fitted maximal effect;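 on activation: cAMP rise lowers the TR-FRET signal in lysed cells with PDE4 inhibitor present; 0% = buffer-only basal and 100% = 29 nM porcine relaxin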
Conditions: HEK293T-RXFP1 cAMP TR-FRET, 30 min; series mostly up to 115 µM
Inconclusive results are not listed. Activity calls are given as the source filed them. Calls follow the shape of the dose curve; as a rule, active = well fitted activation curve with a large enough effect; inconclusive = small, poorly fitted or top-dose-only effect; inactive = no such curve, though single readings can be large or run the other way.
ENDPOINT_LABEL: Potency

Study these solved cases before continuing.
[[record]]
molecule = "CCc1ccc2n(-c3ccc(OC)cc3)c([S-])c(C(=O)Nc3cc(C)cc(C)c3)[n+]2c1"
assayed_target = "Relaxin receptor 1 (Homo sapiens) (UniProt Q9HBX9)"
reading = "24.5 µM (active)"

[[record]]
molecule = "O=C(Nc1ccccc1C(=O)Nc1ccccc1C(=O)NCc1ccco1)c1ccco1"
assayed_target = "Relaxin receptor 1 (Homo sapiens) (UniProt Q9HBX9)"
reading = "21.9 µM (active)"

[[record]]
molecule = "O=c1oc2cc(O)c(Cl)cc2c2ccccc12"
assayed_target = "Relaxin receptor 1 (Homo sapiens) (UniProt Q9HBX9)"
reading = "6.9 µM (active)"

[[record]]
molecule = "O=S(=O)(c1cccc(-c2cn3cccnc3n2)c1)N1CCOCC1"
assayed_target = "Relaxin receptor 1 (Homo sapiens) (UniProt Q9HBX9)"
reading = "27.5 µM (active)"

[[record]]
molecule = "Nc1cc2ccncc2c2ccccc12"
assayed_target = "Relaxin receptor 1 (Homo sapiens) (UniProt Q9HBX9)"
reading = "inactive"

[[record]]
molecule = "Cc1noc(NS(=O)(=O)c2ccc(N3Cc4ccccc4C3=O)cc2)c1C"
assayed_target = "Relaxin receptor 1 (Homo sapiens) (UniProt Q9HBX9)"
reading = "11.9 µM (active)"


Quick one: Potency for O=C(Nc1ccccc1C(=O)NCCN1CCOCC1)c1ccco1 ?
inactive

COc1ccccc1NC(=O)c1sc2nc3n(c(=O)c2c1C)CCC3 ?
inactive

Cc1cccc(C(=O)Nc2ccccc2C(=O)NCc2ccco2)c1 ?
inactive

O=C(O)c1ccc(CN2C(=O)c3ccc(C(=O)O)cc3C2=O)cc1 ?
inactive

CC(=O)Nc1ccc(NC(=O)CSc2ccc3nnc(-c4ccccn4)n3n2)cc1 ?
inactive

---

Target: Relaxin receptor 1 (Homo sapiens)
Test: qHTS Assay for Agonists of the Relaxin Receptor RXFP1: RXFP1 Hit Validation; further: nearly all actives have a fitted effect of over 65% in size;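 on activation: cAMP rise lowers the TR-FRET signal in lysed cells with PDE4 inhibitor present; 0% = buffer-only basal and 100% = 29 nM porcine relaxin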
Details: HEK293T-RXFP1 cAMP TR-FRET, 30 min; series mostly up to 115 µM
Results filed as inconclusive are left out. Activity calls are given as the source filed them. The call rests on the fitted dose curve; in most records, active means well fitted activation curve with a large enough effect; inconclusive means small, poorly fitted or top-dose-only effect; inactive means no such curve, though single readings can be large or run the other way.
Thanks in advance; please answer with one of these: active, inactive

# count of solved cases: 5
[[record]]
compound = "NCCNC(=O)Cc1ccc(NC(=O)Cc2ccc(Nc3ncnc4c3ncn4[C@@H]3O[C@H](CO)[C@@H](O)[C@H]3O)cc2)cc1"
answer_label = "active"

[[record]]
compound = "Cc1cc2nc3ccc(=[N+](C)C)cc-3sc2cc1N"
answer_label = "inactive"

[[record]]
compound = "Nc1c(Cl)cc(-c2[nH]c3cc(C(=O)NCCO)ccc3c(=O)c2O)cc1Cl"
answer_label = "active"

[[record]]
compound = "CCn1c(=O)c2cc(C(=O)Nc3cccc(C(C)=O)c3)sc2c2ccccc21"
answer_label = "inactive"

[[record]]
compound = "CN(C)c1ccc2nc3c(=O)[nH]c(=O)nc-3n(CC(O)C(O)C(O)CO)c2c1 (stereo unspecified)"
answer_label = "inactive"


Lab log entry: CCc1cc2cc3c(cc2nc1SCC(=O)Nc1nccs1)OCO3 — outcome as called in the assay?
active

---

Target: Relaxin receptor 1 (Homo sapiens) (UniProt Q9HBX9)
Experiment: qHTS Assay for Agonists of the Relaxin Receptor RXFP1: RXFP1 Hit Validation; further: nearly all actives have a fitted effect of over 65% in size;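 on activation: cAMP rise lowers the TR-FRET signal in lysed cells with PDE4 inhibitor present; 0% = buffer-only basal and 100% = 29 nM porcine relaxin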
Details: HEK293T-RXFP1 cAMP TR-FRET, 30 min; series mostly up to 115 µM
Inconclusive results are not listed. Active and inactive are the calls of the source. The call rests on the fitted dose curve; in most records, active means well fitted activation curve with a large enough effect; inconclusive means small, poorly fitted or top-dose-only effect; inactive means no such curve, though single readings can be large or run the other way.
Thanks in advance; please answer with one of these: Yes = active, No = inactive

[[record]]
compound = "Cn1c(N)c(C(=O)CSc2nnc(NC3CCCCC3)s2)c(=O)n(C)c1=O"
assayed_target = "Relaxin receptor 1 (Homo sapiens) (UniProt Q9HBX9)"
answer_label = "No"

[[record]]
compound = "Cc1ccc(CN(C)C(=O)c2ccccc2NC(=O)c2ccccc2)o1"
assayed_target = "Relaxin receptor 1 (Homo sapiens) (UniProt Q9HBX9)"
answer_label = "No"

[[record]]
compound = "CCC1(C)Cc2c(sc3c2c2ncnn2c2nnc(SCC(=O)NCc4ccco4)n32)CO1 (configuration not stated)"
assayed_target = "Relaxin receptor 1 (Homo sapiens) (UniProt Q9HBX9)"
answer_label = "Yes"

[[record]]
compound = "CC(C)C(=O)Nc1ccc(Nc2ccccc2)cc1"
assayed_target = "Relaxin receptor 1 (Homo sapiens) (UniProt Q9HBX9)"
answer_label = "No"

[[record]]
compound = "CCN(c1ccccc1)S(=O)(=O)c1ccc(OC)c(NC(=O)C2CC(=O)N(Cc3ccccc3)C2)c1 (configuration not stated)"
assayed_target = "Relaxin receptor 1 (Homo sapiens) (UniProt Q9HBX9)"
answer_label = "No"


Lab log entry: COc1ccc(CC(=O)N/N=C/c2cccnc2)cc1OC — outcome as called in the assay?
No

Cc1nn(CC(=O)NCCN2CCOCC2)c(=O)c2cc3sccc3n12 ?
No

Cc1cccc(-c2nnc(SCC(=O)NC3CC3)n2C)c1 ?
No

Brc1ccc2ncnc(NCc3cccnc3)c2c1 ?
Yes

Cc1ccc(-c2ccc3nnc(SCC(=O)NCC4CCCO4)n3n2)cc1 (configuration not stated) ?
No

O=C(Nc1ccccc1C(=O)O)c1ccc(NC(=O)C2CC2)cc1 ?
No

COc1ccc(NC(=O)CSc2nc(-c3ccc(C)cc3)cc(C(F)(F)F)c2C#N)cc1 ?
No

Ref: PubChem BioAssay AID489012
